- systemUnderTest: T1, human BACE1 ECD
- T1 construct: analyte of the Octet assay (200 nM) and enzyme of the first short substrate assay; also called human BACE1 extracellular domain
- T1 sequence (single chain, as listed by the source limits assumed): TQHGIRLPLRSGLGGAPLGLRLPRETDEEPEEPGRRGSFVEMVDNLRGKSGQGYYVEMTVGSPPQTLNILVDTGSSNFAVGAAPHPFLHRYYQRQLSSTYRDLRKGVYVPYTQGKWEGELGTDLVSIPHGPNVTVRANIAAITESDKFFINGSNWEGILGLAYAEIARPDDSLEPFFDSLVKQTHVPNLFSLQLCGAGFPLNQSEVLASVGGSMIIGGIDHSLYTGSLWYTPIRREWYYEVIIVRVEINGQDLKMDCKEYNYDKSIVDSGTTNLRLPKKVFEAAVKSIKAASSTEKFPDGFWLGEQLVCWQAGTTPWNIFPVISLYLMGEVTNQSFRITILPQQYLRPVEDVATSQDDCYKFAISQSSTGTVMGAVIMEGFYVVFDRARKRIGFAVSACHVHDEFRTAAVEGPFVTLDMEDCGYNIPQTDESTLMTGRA
- measurementDescription: Octet, pH 7.5;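 further: antibodies captured on anti-human capture sensor tips, dissociation monitored in PBS with BSA, Kd obtained from kinetic fit to a one-to-one binding model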
pKd: −log10 of the molar value.
Exercise: state measured pKd for each of the binders provided.

Incoming: # get_value(readout='pKd', item= 6291 (antibody, V domains shown, anti-BACE1 IgG) VH: QLQLQESGPGLVKPSETLSLTCTVSGGSISSSSYYWGWIRQPPGKGLEWIGMIYYSGSTWYNPSLKSRVTISVDTSKNQFSLKLSSVTAADTAVYYCARVGHGVSYFDLWGRGTLVTVSS VL: EIVLTQSPATLSLSPGERATLSCRASQSVSSYLAWYQQKPGQAPRLLIYGASKRATGIPARFSGSGSGTDFTLTISSLEPEDFAVYYCQQVYTWPPRTFGGGTKVEIK )
Outgoing: > 9.55

Incoming: # get_value(readout='pKd', item= 6293 (antibody, V domains shown, anti-BACE1 IgG) VH: QLQLQESGPGLVKPSETLSLTCTVSGGSISSSSYYWGWIRQPPGKGLEWIGMIYYSGSTWYNPSLRSRVTISVDTSKNQFSLKLSSVTAADTAVYYCARVGHGVSYFDLWGRGTLVTVSS VL: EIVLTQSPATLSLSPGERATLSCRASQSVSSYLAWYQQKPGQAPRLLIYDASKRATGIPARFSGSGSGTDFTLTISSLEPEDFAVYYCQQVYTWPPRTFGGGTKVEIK )
Outgoing: > 9.55

Incoming: # get_value(readout='pKd', item= 6288 (antibody, V domains shown, anti-BACE1 IgG) VH: QLQLQESGPGLVKPSETLSLTCTVSGGSTSSSSYYWGWIRQPPGKGLEWIGSIYRSGSTYYNPSLRSRVTISVDTSKNQFSLKLSSVTAADTAVYYCARVGHGISYFDLWGRGTLVTVSS VL: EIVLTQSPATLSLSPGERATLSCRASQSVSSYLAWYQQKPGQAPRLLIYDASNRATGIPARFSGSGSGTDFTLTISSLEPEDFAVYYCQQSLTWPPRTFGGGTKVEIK )
Outgoing: > 9.68

Incoming: # get_value(readout='pKd', item= 6299 (antibody, V domains shown, anti-BACE1 IgG) VH: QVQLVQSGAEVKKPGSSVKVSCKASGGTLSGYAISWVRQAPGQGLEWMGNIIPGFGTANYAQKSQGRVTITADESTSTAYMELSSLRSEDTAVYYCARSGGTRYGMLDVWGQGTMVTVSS VL: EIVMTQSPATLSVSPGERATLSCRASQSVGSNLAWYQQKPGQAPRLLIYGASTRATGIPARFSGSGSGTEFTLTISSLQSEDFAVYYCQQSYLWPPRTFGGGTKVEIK )
Outgoing: > 9.39

Incoming: # get_value(readout='pKd', item= 6300 (antibody, V domains shown, anti-BACE1 IgG) VH: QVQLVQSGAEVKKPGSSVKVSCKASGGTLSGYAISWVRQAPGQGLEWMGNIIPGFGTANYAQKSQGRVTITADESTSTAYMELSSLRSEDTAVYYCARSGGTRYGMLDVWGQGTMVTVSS VL: EIVLTQSPATLSVSPGERATLSCRASQSVGSNLAWYQQKPGQAPRLLIYGASTRATGIPARFSGSGSGTEFTLTISSLQSEDFAVYYCQQSFLWPPRTFGGGTKVEIK )
Outgoing: > 9.10
